- assay_remarks: Solubility
- Assay type: physicochemical
- condition_context: citrate buffer pH 4, pH 4, aqueous buffer, thermodynamic from solid, pH = 4 citrate buffer, 24 h room temperature, max. 500 μg/ml
endpoint_name: solubility at 24 h

Some compounds with recorded solubility at 24 h:
{"smiles_entry": "NC(=O)c1nc(Cn2nc(-c3ccc(Cl)cc3)n(C[C@H](OP(=O)([O-])O)C(F)(F)F)c2=O)nn1-c1ncccc1C(F)(F)F.[Li+]", "solubility at 24 h": "> 500 µg/mL"}
{"smiles_entry": "NC(=O)c1nc(Cn2nc(-c3ccc(Cl)cc3)n(C[C@H](OP(=O)(O)O)C(F)(F)F)c2=O)nn1-c1ncccc1C(F)(F)F", "solubility at 24 h": "> 500 µg/mL"}

For each entry beneath this line, provide reported solubility at 24 h.
1. NC(=O)c1nc(Cn2nc(-c3ccc(Cl)cc3)n(C[C@H](OP(=O)([O-])[O-])C(F)(F)F)c2=O)nn1-c1ncccc1Cl.[Mg+2]
2. NC(=O)c1nc(Cn2nc(-c3ccc(Cl)cc3)n(C[C@H](OP(=O)([O-])[O-])C(F)(F)F)c2=O)nn1-c1ncccc1C(F)(F)F.[Mg+2]
3. NC(=O)c1nc(Cn2nc(-c3ccc(Cl)cc3)n(C[C@H](OP(=O)([O-])O)C(F)(F)F)c2=O)nn1-c1ncccc1C(F)(F)F.[Na+]
4. NC(=O)c1nc(Cn2nc(-c3ccc(Cl)cc3)n(C[C@H](O)C(F)(F)F)c2=O)nn1-c1ncccc1Cl
5. NC(=O)c1nc(Cn2nc(-c3ccc(Cl)cc3)n(C[C@H](OP(=O)(O)O)C(F)(F)F)c2=O)nn1-c1ccccc1C(F)(F)F
6. NC(=O)c1nc(Cn2nc(-c3ccc(Cl)cc3)n(C[C@H](O)C(F)(F)F)c2=O)nn1-c1ncccc1C(F)(F)F
7. NC(=O)c1nc(Cn2nc(-c3ccc(Cl)cc3)n(C[C@H](OP(=O)(O)O)C(F)(F)F)c2=O)nn1-c1ncccc1Cl

A.
> 500 µg/mL
> 500 µg/mL
> 500 µg/mL
5.9 µg/mL
454 µg/mL
8.7 µg/mL
> 500 µg/mL

Q. Sample NC(=O)c1nc(Cn2nc(-c3ccc(Cl)cc3)n(C[C@H](OP(=O)([O-])O)C(F)(F)F)c2=O)nn1-c1ncccc1Cl.[Na+] — what was its solubility at 24 h?
A. > 500 µg/mL

----------
- assay_remarks: Solubility
- Type: physicochemical
- condition_context: PBS buffer pH 7.4, pH 7.4, aqueous buffer, thermodynamic from solid, pH = 7.4 PBS buffer, 24 h room temperature, max. 500 μg/ml
Give solubility at 24 h for every item shown.

{"molecule": "NC(=O)c1nc(Cn2nc(-c3ccc(Cl)cc3)n(C[C@H](OP(=O)([O-])O)C(F)(F)F)c2=O)nn1-c1ncccc1C(F)(F)F.[Li+] [Example 6]", "val": "464 µg/mL"}
{"molecule": "NC(=O)c1nc(Cn2nc(-c3ccc(Cl)cc3)n(C[C@H](OP(=O)([O-])[O-])C(F)(F)F)c2=O)nn1-c1ncccc1C(F)(F)F.[Mg+2] [Example 9]", "val": "> 500 µg/mL"}
{"molecule": "NC(=O)c1nc(Cn2nc(-c3ccc(Cl)cc3)n(C[C@H](OP(=O)([O-])[O-])C(F)(F)F)c2=O)nn1-c1ncccc1Cl.[Mg+2] [Example 22]", "val": "> 500 µg/mL"}

Go through the items and report each one's solubility at 24 h.
1. NC(=O)c1nc(Cn2nc(-c3ccc(Cl)cc3)n(C[C@H](OP(=O)([O-])O)C(F)(F)F)c2=O)nn1-c1ncccc1Cl.[Na+] [Example 20]
2. NC(=O)c1nc(Cn2nc(-c3ccc(Cl)cc3)n(C[C@H](OP(=O)([O-])O)C(F)(F)F)c2=O)nn1-c1ncccc1C(F)(F)F.[Na+] [Example 4]

A.
> 500 µg/mL
> 500 µg/mL
